- Target System: COX2 (Homo sapiens, UniProt P35354)
- Construct: myc; expressed in transfected cells; host or cells: HEK293T
- Sequence (P35354 18-604): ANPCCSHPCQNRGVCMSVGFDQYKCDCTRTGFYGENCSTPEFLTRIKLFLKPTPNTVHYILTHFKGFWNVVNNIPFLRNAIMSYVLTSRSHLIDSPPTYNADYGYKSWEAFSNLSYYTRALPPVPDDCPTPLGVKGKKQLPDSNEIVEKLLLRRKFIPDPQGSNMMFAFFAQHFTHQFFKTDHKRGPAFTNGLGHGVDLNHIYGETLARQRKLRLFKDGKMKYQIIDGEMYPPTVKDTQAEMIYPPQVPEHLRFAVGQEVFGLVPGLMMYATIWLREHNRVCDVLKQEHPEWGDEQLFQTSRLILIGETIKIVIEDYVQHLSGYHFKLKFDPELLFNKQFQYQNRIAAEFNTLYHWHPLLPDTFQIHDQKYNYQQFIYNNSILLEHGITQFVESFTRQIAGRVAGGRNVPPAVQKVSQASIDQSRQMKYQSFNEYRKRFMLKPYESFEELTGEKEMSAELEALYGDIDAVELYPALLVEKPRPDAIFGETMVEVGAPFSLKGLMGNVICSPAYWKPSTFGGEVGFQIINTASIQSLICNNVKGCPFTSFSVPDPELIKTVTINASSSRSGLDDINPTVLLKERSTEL
- Assay Explanation: S-nitrosylation of COX2 (biotin switch assay) in HEK293T cells transfected with COX2-myc
- Format: cell-based
- Assay Conditions: HEK293T cells transfected with COX2-myc, biotin switch; GSNO 100 μM, SNP 100 μM, Spermine-NO 100 μM, DETA-NO 500 μM
Measured Property: S-nitrosylation of COX2 by NO donors and H2O2

**Query** Fill in: S-nitrosylation of COX2 by NO donors and H2O2 of "NCCCNCCCCN(CCCN)/[N+]([O-])=N/O" is ___
**Result** elicit S-nitrosylation

**Query** Queued: NCCN(CCN)/[N+]([O-])=N/O [DETA-NONOate]
**Result** elicit S-nitrosylation

**Query** Queued: "N[C@@H](CCC(=O)N[C@@H](CSN=O)C(=O)NCC(=O)O)C(=O)O"
**Result** elicit S-nitrosylation
